- test system: 5-hydroxytryptamine receptor 2C (Homo sapiens, UniProt P28335)
- Sequence (P28335 whole entry): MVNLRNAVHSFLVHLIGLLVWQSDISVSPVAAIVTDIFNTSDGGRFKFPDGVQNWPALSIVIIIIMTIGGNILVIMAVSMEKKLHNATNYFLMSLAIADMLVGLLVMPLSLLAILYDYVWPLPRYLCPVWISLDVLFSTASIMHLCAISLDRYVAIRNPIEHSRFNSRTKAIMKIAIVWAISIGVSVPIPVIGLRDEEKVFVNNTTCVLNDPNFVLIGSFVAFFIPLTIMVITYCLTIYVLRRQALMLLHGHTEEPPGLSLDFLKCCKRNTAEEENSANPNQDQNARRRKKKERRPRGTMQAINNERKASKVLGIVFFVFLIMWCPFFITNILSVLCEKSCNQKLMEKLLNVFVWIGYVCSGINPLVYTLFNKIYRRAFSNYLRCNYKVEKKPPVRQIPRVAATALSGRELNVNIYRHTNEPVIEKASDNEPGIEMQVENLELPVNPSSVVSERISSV
pKi: −log10 of the molar value.
Label condition met for high-side pKi (at or above 7) and condition not met for low-side pKi (below it).

Query: Would you say CCCN1CCCC2Cc3[nH]ncc3CC21 (stereo not drawn) shows pKi at minimum 7?
Response: condition not met

Query: Would you say CC(C)CC(N(C)C)C1(c2ccc(Cl)cc2)CCC1 (stereo not drawn) shows pKi at minimum 7?
Response: condition not met

Query: Would you say CCC(CO)NC(=O)C1C=C2c3cccc4[nH]cc(c34)CC2N(C)C1 (stereo not drawn) shows pKi at minimum 7?
Response: condition met

Query: Would you say CC(N)Cn1ccc2cc(F)c(Cl)cc21 (stereo not drawn) shows pKi at minimum 7?
Response: condition met

Query: Would you say Cc1cc2c(cc1Cl)N(C(=O)Nc1ccc(Oc3cccnc3C)nc1)CC2 shows pKi at minimum 7?
Response: condition met

Query: Would you say O=C1NCN(c2ccccc2)C12CCN(CCCOc1ccc(F)cc1)CC2 shows pKi at minimum 7?
Response: condition not met

Query: Would you say C[C@H](N)CN1CCc2ccc(Br)cc21 shows pKi at minimum 7?
Response: condition met

Query: Would you say C[C@H](N)Cc1cccc(C(F)(F)F)c1 [Norfenfluramine (+)] shows pKi at minimum 7?
Response: condition met

Query: Would you say CN1CC(C(=O)NC2(C)OC3(O)C4CCCN4C(=O)C(Cc4ccccc4)N3C2=O)C=C2c3cccc4[nH]cc(c34)CC21 (stereo not drawn) shows pKi at minimum 7?
Response: condition met

Query: Would you say CC(C)CC(N)C1(c2ccc(Cl)cc2)CCC1 (stereo not drawn) shows pKi at minimum 7?
Response: condition not met

Query: Would you say Cc1nc(-c2ccc(-c3ccc(C(=O)N4CCc5cc6c(cc54)C4(CCN(C)CC4)CO6)cc3)c(C)c2)no1 shows pKi at minimum 7?
Response: condition not met

Query: Would you say CSc1ccc2c(c1)C(N1CCN(C)CC1)Cc1ccccc1S2 (stereo not drawn) shows pKi at minimum 7?
Response: condition met
